The measured values listed here are drawn from the Human Domainome abundance scans (Beltran et al. 2025).

B1: Intersectin-1, residues 1156 to 1213; numbered along this chain, Q15811 (parent)
chain: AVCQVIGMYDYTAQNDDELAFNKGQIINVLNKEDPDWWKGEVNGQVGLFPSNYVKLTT

- Variants of: B1
- ASSAY SUMMARY: abundance fitness (aPCA) (normalised: wild type 0, dead -1); higher = more abundant; growth selection in yeast, the domain comes from the species named
- CONDITION LABEL: Homo sapiens
Quick reference for abundance fitness among some variants
REPORTED PROPERTY: abundance fitness

mutant_id=L56D observed_measurement=-0.106
mutant_id=L30K observed_measurement=-0.825
mutant_id=I27H observed_measurement=-0.748
mutant_id=D36V observed_measurement=-0.069
mutant_id=G47Y observed_measurement=-0.908
mutant_id=Q4D observed_measurement=-1.15
mutant_id=L48H observed_measurement=-0.335
mutant_id=Q45M observed_measurement=-0.023
mutant_id=F49D observed_measurement=-0.485
mutant_id=C3Q observed_measurement=-0.606
mutant_id=D17F observed_measurement=-0.359
mutant_id=G40M observed_measurement=-0.658
mutant_id=V2N observed_measurement=-0.223
mutant_id=T58N observed_measurement=-0.233
mutant_id=N22I observed_measurement=-0.286
mutant_id=V2R observed_measurement=-0.003
mutant_id=V5I observed_measurement=-0.823
mutant_id=A20E observed_measurement=-0.149
mutant_id=L56E observed_measurement=0.005
mutant_id=W37I observed_measurement=-0.022
mutant_id=Q14A observed_measurement=-0.267
mutant_id=I27Y observed_measurement=-0.564
mutant_id=L56P observed_measurement=-0.121
mutant_id=G7N observed_measurement=-1.15
mutant_id=Q4K observed_measurement=-0.236
mutant_id=V2P observed_measurement=-0.222
mutant_id=E33L observed_measurement=-0.497
mutant_id=E18Q observed_measurement=0.036
mutant_id=N52A observed_measurement=-0.183
mutant_id=M8R observed_measurement=0.145
mutant_id=N31A observed_measurement=0.037
mutant_id=Y9H observed_measurement=0.278
mutant_id=Q14P observed_measurement=-0.844
mutant_id=G47L observed_measurement=-0.881
mutant_id=K32Y observed_measurement=-0.341
mutant_id=N43A observed_measurement=-0.263
mutant_id=Y9G observed_measurement=-0.164
mutant_id=W37P observed_measurement=-0.947
mutant_id=V29E observed_measurement=-0.925
mutant_id=Y53E observed_measurement=-0.711
mutant_id=F21K observed_measurement=-0.527
mutant_id=K23S observed_measurement=-0.214
mutant_id=E41A observed_measurement=-0.568
mutant_id=F21E observed_measurement=-0.745
mutant_id=W38C observed_measurement=-0.793
mutant_id=F21A observed_measurement=-0.913
mutant_id=Y11H observed_measurement=0.077
mutant_id=V46I observed_measurement=-0.006
mutant_id=W38P observed_measurement=-0.853
mutant_id=Y53P observed_measurement=-0.726
mutant_id=T12C observed_measurement=-0.464
mutant_id=D10R observed_measurement=-0.335
mutant_id=T58P observed_measurement=-0.09
mutant_id=L30Y observed_measurement=-0.32
mutant_id=Y9K observed_measurement=0.474
mutant_id=T12A observed_measurement=-0.075
mutant_id=A13T observed_measurement=-0.336
mutant_id=V46C observed_measurement=-0.503
mutant_id=N22A observed_measurement=0.157
mutant_id=V42N observed_measurement=-0.756
mutant_id=S51F observed_measurement=-0.942
mutant_id=V5L observed_measurement=-0.891
